Listed here are compounds together with their documented pIC50.
System: Target C
test.summary: Splicing RT-qPCR panel, Target C canonical junction (CJ) mRNA
Assay type: cell-based, human
experimental.conditions: Homo sapiens, RT-qPCR panel, canonical junction mRNA; compound concentration having 50% response in CJ decrease; read-out: Target C IC50 (decrease in CJ mRNA levels)
pIC50: −log10 of the molar value.
outcome.measure: pIC50

compound=c1n[nH]cc1-c1ccc(-c2ccc(N[C@@H]3C[C@H]4CCC[C@@H](C3)N4)nn2)c2[nH]ncc12 reported_value="6.00 to 7.00"
compound=CN(c1ccc(-c2ccc(-c3cnn(C)c(=O)c3)c3ncsc23)nn1)C1CC(C)(C)NC(C)(C)C1 reported_value="< 5.00"
compound=CN(c1ccc(-c2ccc(-c3cn[nH]c3)c3ncsc23)nn1)C1CC(C)(C)NC(C)(C)C1 reported_value="6.00 to 7.00"
compound=c1n[nH]cc1-c1ccc(-c2ccc(N3C[C@H]4CNC[C@H]4C3)nn2)c2[nH]ncc12 reported_value="< 5.00"
compound="CC(C)(C)NC1CCN(c2ccc(-c3ccc(-n4cccn4)c4[nH]ncc34)nn2)C1 (stereo not shown)" reported_value="5.00 to 6.00"
compound=CN(c1ccc(-c2ccc(-c3cnc(=O)[nH]c3)c3scnc23)nn1)C1CC(C)(C)NC(C)(C)C1 reported_value="6.00 to 7.00"
compound=Cn1cc(-c2ccc(-c3ccc(OC4CC(C)(C)NC(C)(C)C4)nn3)c3[nH]ncc23)nn1 reported_value="< 5.00"
